Test target: recombinant human NF-kappaB-inducing Kinase (NIK/MAP3K14) (Homo sapiens)
Sequence (Q99558 whole entry): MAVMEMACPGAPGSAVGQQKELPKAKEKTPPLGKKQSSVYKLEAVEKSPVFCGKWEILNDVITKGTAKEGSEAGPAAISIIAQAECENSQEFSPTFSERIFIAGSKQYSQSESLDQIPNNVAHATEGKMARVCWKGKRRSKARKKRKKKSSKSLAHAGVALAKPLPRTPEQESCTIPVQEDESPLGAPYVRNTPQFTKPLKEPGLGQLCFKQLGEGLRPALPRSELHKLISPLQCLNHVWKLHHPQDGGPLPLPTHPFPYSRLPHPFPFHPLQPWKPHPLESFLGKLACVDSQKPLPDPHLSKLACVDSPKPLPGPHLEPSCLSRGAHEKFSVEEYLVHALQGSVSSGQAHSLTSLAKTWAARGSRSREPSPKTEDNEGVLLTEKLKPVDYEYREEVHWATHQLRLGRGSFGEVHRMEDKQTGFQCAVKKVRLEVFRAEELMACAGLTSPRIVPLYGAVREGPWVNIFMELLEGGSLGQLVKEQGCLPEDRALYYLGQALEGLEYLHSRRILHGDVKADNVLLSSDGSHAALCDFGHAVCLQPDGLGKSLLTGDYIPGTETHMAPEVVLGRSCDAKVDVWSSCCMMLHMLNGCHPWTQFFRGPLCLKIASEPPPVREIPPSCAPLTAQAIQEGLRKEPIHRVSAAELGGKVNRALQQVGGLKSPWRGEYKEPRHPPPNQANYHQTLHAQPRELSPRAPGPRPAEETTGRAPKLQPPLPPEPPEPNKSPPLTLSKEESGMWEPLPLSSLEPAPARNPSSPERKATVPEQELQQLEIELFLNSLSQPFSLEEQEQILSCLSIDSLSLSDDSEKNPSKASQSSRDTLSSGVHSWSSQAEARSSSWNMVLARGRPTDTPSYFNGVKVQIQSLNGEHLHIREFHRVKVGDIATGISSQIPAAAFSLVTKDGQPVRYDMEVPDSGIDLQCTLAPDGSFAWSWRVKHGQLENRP
Assay text: Inhibition of auto-phosphorylation of recombinant human NIK/MAP3K14 activity (AlphaScreen)
Format: biochemical
Condition label: 25 microM ATP, averaged over all measurements on all batches
Reported property: IC50 (nM)

Below, each entry is followed by its recorded IC50 result.
# Compound, Unit spec, IC50
records = [
    ("CC(C)(O)c1ccc(Nc2nccc(-c3cc(C#N)c4c(c3)[C@@](C)(CO)CN4)n2)c(CCC2CC2)n1", "nM", 4.7),
    ("Cc1cnc(OC2CCN(C)CC2)c(Nc2nccc(-c3cc(C#N)c4c(c3)[C@@](C)(CO)CN4)n2)c1", "nM", 2.8),
    ("COc1nnc(Cl)cc1Nc1nccc(-c2cc(C#N)c3c(c2)C(C)(CO)CN3)n1 (centres unmarked)", "nM", 3.8),
    ("COc1ncc(C)cc1Nc1nccc(-c2cc(C#N)c3c(c2)[C@@](C)(CO)CN3)n1", "nM", 2.5),
]

1: COc1ncccc1Nc1ncnc(-c2cc(C#N)c3c(c2)[C@@](C)(CO)CN3)n1
2: COc1nc(C)c(Nc2nccc(-c3cc(C#N)c4c(c3)[C@@](C)(CO)CN4)n2)cc1C
3: COc1ncccc1Nc1nccc(-c2cc(C#N)c3c(c2)C(C)(CN(C)CCO)CN3)n1 (centres unmarked)
4: CC1(C)CNc2c(C#N)cc(-c3ccnc(Nc4cnc(N5CCOCC5)nc4)n3)cc21
Ask: Hey, can you sort those compounds up there by IC50, smallest first? Please list each label once, in the requested order.
Result: 2, 1, 4, 3
(2: 3 nM, 1: 5.2 nM, 4: 9.8 nM, 3: 32.4 nM)
